tested on: HEK293; experiment: Cytotoxicity against HEK293 cells assessed as reduction in cell viability at 80 uM measured after 72 hrs by resazurin dye based fluorescence assay relative to control; assay type: toxicity; conditions: human, hek293, 72 h

{"molecule": "C[C@H]1[C@H](OC(=O)CCC(=O)O)O[C@@H]2O[C@@]3(C)CC[C@H]4[C@H](C)CC[C@@H]1[C@@]24OO3 [ARTESUNATE]", "system-name": "HEK293", "Activity": "20%"}
{"molecule": "CC(C)C[C@@]1(O)C(=O)C(C)(C)C(=O)C(C)(C)[C@H]1OC(=O)C(C)C", "system-name": "HEK293", "Activity": "Non-Toxic"}
{"molecule": "CC(C)C[C@]1(O)C(O)=C([C@@H](C2=C(O)C(C)(C)C(=O)C(C)(C)C2=O)C(C)C)C(=O)C([C@H](C2=C(O)C(C)(C)C(=O)C(C)(C)C2=O)C(C)C)=C1O", "system-name": "HEK293", "Activity": "Non-Toxic"}
{"molecule": "CC(C)=C[C@@]1(O)C(=O)C(C)(C)C(=O)C(C)(C)[C@H]1OC(=O)C(C)C", "system-name": "HEK293", "Activity": "Non-Toxic"}
{"molecule": "CCc1nc(N)nc(N)c1-c1ccc(Cl)cc1", "system-name": "HEK293", "Activity": "31%"}
{"molecule": "CC1(C)CC2=C(OO1)C(C)(C)C(=O)C(C)(C)C2=O", "system-name": "HEK293", "Activity": "Non-Toxic"}

---

assay: Selectivity index, ratio of IC50 for cytotoxicity against HEK293 cells to IC50 for antiplasmodial activity against ring stage drug-sensitive Plasmodium falciparum 3D7; format: toxicity, cell-based; settings: human, HEK293 cells versus ring stage Plasmodium falciparum 3D7; read-out: Ratio IC50

{"mol": "CC(C)C[C@]1(O)C(O)=C([C@@H](C2=C(O)C(C)(C)C(=O)C(C)(C)C2=O)C(C)C)C(=O)C([C@H](C2=C(O)C(C)(C)C(=O)C(C)(C)C2=O)C(C)C)=C1O", "selectivity ratio": "> 8.4"}
{"mol": "CC(C)=C[C@@]1(O)C(=O)C(C)(C)C(=O)C(C)(C)[C@H]1OC(=O)C(C)C", "selectivity ratio": "> 5"}
{"mol": "CC(C)C[C@@]1(O)C(=O)C(C)(C)C(=O)C(C)(C)[C@H]1OC(=O)C(C)C", "selectivity ratio": "> 12.1"}
